test: Apparent lipophilicity log D at pH 7.4 (octanol / pH 7.4 surfactant free buffer); format: physicochemical
Overview of recorded Apparent Lipophilicity logD7.4 for various molecules

{"molecule": "CCCCCCCCCC(=O)Oc1cccc2c1CCC(N(CCC)CCc1cccs1)C2 (centres unmarked)", "Apparent Lipophilicity logD7.4": ">4"}
{"molecule": "CCCCCCCCCCCCCCCC(=O)Oc1cccc2c1CCC(NCCC)C2 (centres unmarked)", "Apparent Lipophilicity logD7.4": "6.5-7.5"}
{"molecule": "CCCCCCCCCCCC(=O)Oc1cccc2c1CC(N(CCC)CCC)CC2 (centres unmarked) [Compound C7, Laurate (C12) Ester of 8-OH-DPAT]", "Apparent Lipophilicity logD7.4": "6.5-7.5"}
{"molecule": "CCCN(CCc1cccs1)[C@H]1CCc2c(O)cccc2C1", "Apparent Lipophilicity logD7.4": "1-1.9"}
{"molecule": "CCCN[C@H]1CCc2c(O)cccc2C1", "Apparent Lipophilicity logD7.4": "−0.5"}
